Where do these numbers come from? They come from PubChem BioAssay (NCATS).

tested on: CP262; assay: qHTS profiling for inhibitors of Plasmodium falciparum proliferation (AID 504749); further: nearly all actives have a fitted effect of over 60% in size; conditions: P. falciparum in erythrocytes, SYBR Green DNA, 72 h; series mostly up to 28.7 µM
Records with an inconclusive call do not appear. Calls of active or inactive are those of the source. The call rests on the fitted dose curve; in most records, active means well fitted inhibition curve with a large enough effect; inconclusive means small, poorly fitted or top-dose-only effect; inactive means flat fitted curve, though single readings scatter.
Choose the fitting class; nothing outside active, inactive is accepted.

Example cases with answers are listed next.
molecule | assigned-label
Cc1cc(N)c2cc(NC(=O)Nc3ccc4nc(C)cc(N)c4c3)ccc2n1 | active
CCC(=O)c1c(O)cc(O)cc1O | inactive
NC(CS)C(=O)O (stereo unspecified) | inactive
CCCCC1=NC2(CCCC2)C(=O)N1Cc1ccc(-c2ccccc2-c2nn[nH]n2)cc1 | inactive
CO/N=C1\CN(c2nc3c(cc2F)c(=O)c(C(=O)O)cn3C2CC2)CC1CN (stereo unspecified) | inactive

query: I'd appreciate the recorded outcome for O=C1OCCN1/N=C/c1ccc([N+](=O)[O-])o1 from this test.
result: inactive

* * *

assay: Cell Viability - LYMP2-021 (AID 974); settings: LYMP2-021 lymphoblastoid cells viability; series mostly up to 92.2 µM;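 further: compound exposure lasts 24 hours at 37 °C; nearly all actives have a fitted effect of over 55% in size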
Inconclusive results are not listed. The source made the active and inactive calls. The call rests on the fitted dose curve; in most records, active means well fitted cell-killing curve with a large enough effect; inconclusive means small, poorly fitted or top-dose-only effect; inactive means flat fitted curve, though single readings scatter.
Choose the fitting class; nothing outside 1 (active), -1 (inactive) is accepted.

Example cases with answers are listed next.
compound | assigned-label
CC(=O)O[C@]1(C(C)=O)CC[C@H]2[C@@H]3C[C@H](C)C4=CC(=O)CC[C@]4(C)[C@H]3CC[C@@]21C | 1
C[C@]12CC[C@@H]3c4ccc(O)cc4CC[C@H]3[C@@H]1CC[C@@H]2O | -1
CN(C)/N=N/c1nc[nH]c1C(N)=O | -1

query: I'd appreciate the recorded outcome for Oc1c(Cl)cc(Cl)cc1Sc1cc(Cl)cc(Cl)c1O from this test.
result: 1

query: I'd appreciate the recorded outcome for O=C1OC(c2ccc(O)cc2)(c2ccc(O)cc2)c2ccccc21 from this test.
result: -1

* * *

assay: qHTS of pediatric cancer cell lines to identify multiple opportunities for drug repurposing: Confirmatory screen for LAN-5 cells (AID 1347113); details: LAN-5 neuroblastoma cell viability; series mostly up to 45.9 µM; further: nearly all actives have a fitted effect of over 65% in size
Records with an inconclusive call do not appear. Activity calls are given as the source filed them. Calls come from the whole dose curve; as a rule, active = well fitted cell-killing curve with a large enough effect; inconclusive = small, poorly fitted or top-dose-only effect, or effect the other way; inactive = no such curve, though single readings can be large or run the other way. Numbered stars: 1 amine (or outer) side, 2 acyl side, 3 side chain; on linkers, the order of the positions; unused ones are H or OH. Bridge positions count the residues as written; N and C are the ends. Square brackets hold non-standard residues; d marks the D form. Peptide text beside a SMILES is read from it. I, II: the chains in the order shown. Actinocin(9to1) = Cc1c2oc3c(C)ccc(C(=O)[*:1])c3nc-2c(C(=O)[*:2])c(N)c1=O; NMeV = CN[C@H](C(=O)O)C(C)C; Sar = CNCC(=O)O
Choose the fitting class; nothing outside t (active), f (inactive) is accepted.

Example cases with answers are listed next.
molecule | assigned-label
C[C@@H]1CN(CCCn2c3ccccc3c3ccccc32)C[C@H](C)N1 | t
Cc1c2oc3c(C)ccc(C(=O)N[C@@H]4C(=O)N[C@H](C(C)C)C(=O)N5CCC[C@H]5C(=O)N(C)CC(=O)N(C)[C@@H](C(C)C)C(=O)O[C@@H]4C)c3nc-2c(C(=O)N[C@@H]2C(=O)N[C@H](C(C)C)C(=O)N3CCC[C@H]3C(=O)N(C)CC(=O)N(C)[C@@H](C(C)C)C(=O)O[C@@H]2C)c(N)c1=O (I: T[dV]P[Sar][NMeV] / II: T[dV]P[Sar][NMeV]; ester I:1-I:C, II:1-II:C; linker I:N-II:N via Actinocin(9to1)) | t
C[C@@H]1C[C@H]2[C@@H]3CCC4=CC(=O)C=C[C@]4(C)[C@@]3(F)[C@@H](O)C[C@]2(C)[C@H]1C(=O)CO | f

For the next question, use this molecule.
query: I'd appreciate the recorded outcome for CC(=O)OCC(=O)[C@@]12N=C(C)O[C@@H]1C[C@H]1[C@@H]3CCC4=CC(=O)C=C[C@]4(C)[C@H]3[C@@H](O)C[C@@]12C from this test.
result: t

* * *

system: JEG-3; test: Primary qHTS to identify gynecologic anti-cancer compounds using libraries of approved drugs and bioactive compounds (AID 1345084); conditions: Gynecologic cancer cell panel viability, ATPlite luminescence, 48 h; series mostly up to 57.5 µM; further: nearly all actives have a fitted effect of over 55% in size
Records with an inconclusive call do not appear. Calls of active or inactive are those of the source. The call rests on the fitted dose curve; in most records, active means well fitted cell-killing curve with a large enough effect; inconclusive means small, poorly fitted or top-dose-only effect, or effect the other way; inactive means flat fitted curve, though single readings scatter.
Choose the fitting class; nothing outside yes (1) = active, no (0) = inactive is accepted.

Example cases with answers are listed next.
compound | target-or-system | assigned-label
O=C1OC2(c3ccc(O)cc3Oc3cc(O)ccc32)c2ccccc21 | JEG-3 | no (0)
CC(=O)CC(c1ccc([N+](=O)[O-])cc1)c1c(O)c2ccccc2oc1=O (configuration not stated) | JEG-3 | no (0)
Cc1onc(-c2c(Cl)cccc2Cl)c1C(=O)N[C@@H]1C(=O)N2[C@@H]1SC(C)(C)[C@@H]2C(=O)O | JEG-3 | no (0)
Cc1c(C(N)=O)cc([N+](=O)[O-])cc1[N+](=O)[O-] | JEG-3 | no (0)
C#C[C@]1(O)CC[C@H]2[C@@H]3CCc4cc(OC5CCCC5)ccc4[C@H]3CC[C@@]21C | JEG-3 | no (0)
Cc1ccc(Nc2c(F)cccc2Cl)c(CC(=O)O)c1 | JEG-3 | no (0)
CCCCOc1ccc(OCCCN2CCOCC2)cc1 | JEG-3 | no (0)
Cc1c(F)c(N2CCNC(C)C2)cc2c1c(=O)c(C(=O)O)cn2C1CC1 (configuration not stated) | JEG-3 | no (0)
COC1=CC(=O)C[C@@H](C)[C@]12Oc1c(Cl)c(OC)cc(OC)c1C2=O | JEG-3 | no (0)
CCOC(=O)c1cccc(N)c1 | JEG-3 | no (0)

query: I'd appreciate the recorded outcome for O=S1(=O)c2cccc3cccc(c23)N1CCCN1CCN(c2ccc(F)cc2)CC1 from this test.
result: no (0)

query: I'd appreciate the recorded outcome for CC(C)(CO)[C@@H](O)C(=O)NCCCO from this test.
result: no (0)

query: I'd appreciate the recorded outcome for CCN(CCCCOC(=O)c1ccc(OC)c(OC)c1)C(C)Cc1ccc(OC)cc1 (configuration not stated) from this test.
result: no (0)

query: I'd appreciate the recorded outcome for CCOC(=O)COc1ccc2c(C)c(CCN(CC)CC)c(=O)oc2c1Cl from this test.
result: no (0)

query: I'd appreciate the recorded outcome for c1ccc(-c2ccc(C(c3ccccc3)n3ccnc3)cc2)cc1 (configuration not stated) from this test.
result: no (0)

query: I'd appreciate the recorded outcome for OC[C@H]1O[C@@H](n2cnc3c(=S)nc[nH]c32)[C@H](O)[C@@H]1O from this test.
result: yes (1)

query: I'd appreciate the recorded outcome for COc1cc(-c2ccc(=O)[nH]n2)ccc1OC(F)F from this test.
result: no (0)

query: I'd appreciate the recorded outcome for C[C@H](O)C(=O)Nc1c(I)c(C(=O)NC(CO)CO)c(I)c(C(=O)NC(CO)CO)c1I from this test.
result: no (0)

query: I'd appreciate the recorded outcome for CC[N+](CC)(CCNC(=O)C(=O)NCC[N+](CC)(CC)Cc1ccccc1Cl)Cc1ccccc1Cl from this test.
result: no (0)

query: I'd appreciate the recorded outcome for OCc1ccccc1O from this test.
result: no (0)

query: I'd appreciate the recorded outcome for CC(=O)[C@H]1CC[C@H]2[C@@H]3C[C@H](C)C4=CC(=O)CC[C@]4(C)[C@H]3[C@@H](O)C[C@]12C from this test.
result: no (0)

query: I'd appreciate the recorded outcome for CC1=C(C(=O)O)N2C(=O)[C@@H](NC(=O)[C@H](N)c3ccc(O)cc3)[C@H]2SC1 from this test.
result: no (0)

* * *

tested on: CP215; test: qHTS profiling for inhibitors of Plasmodium falciparum proliferation (AID 504749); further: nearly all actives have a fitted effect of over 60% in size; further: potency means the concentration at half of the fitted maximal effect; settings: P. falciparum in erythrocytes, SYBR Green DNA, 72 h; series mostly up to 28.7 µM
Records with an inconclusive call do not appear. Activity calls are given as the source filed them. Calls follow the shape of the dose curve; as a rule, active = well fitted inhibition curve with a large enough effect; inconclusive = small, poorly fitted or top-dose-only effect; inactive = flat fitted curve, though single readings scatter.
measurement-label: Potency

// known answers, use as guide
molecule | Potency
CC(C)(C)CC(C)(C)c1ccc(OCCOCC[N+](C)(C)Cc2ccccc2)cc1 | 5.36 µM (active)
CCCCC1=NC2(CCCC2)C(=O)N1Cc1ccc(-c2ccccc2-c2nn[nH]n2)cc1 | inactive
O=C(O)CCCCC(=O)O | inactive
CC(Cc1cccc(C(F)(F)F)c1)NCCOC(=O)c1ccccc1 (stereo unspecified) | inactive
COc1cc2c(cc1OC)C(=O)C(CC1CCN(Cc3ccccc3)CC1)C2 (stereo unspecified) | inactive
Cc1cc(=O)n(-c2ccccc2)n1C | inactive

query: Suppose we examine the molecule CCOC(=O)COc1ccc2c(C)c(CCN(CC)CC)c(=O)oc2c1Cl ; what Potency value has been reported?
result: inactive

query: Suppose we examine the molecule CCCCOc1ccc(OCCCN2CCOCC2)cc1 ; what Potency value has been reported?
result: inactive

query: Suppose we examine the molecule CN(C(=O)CN(CCO)CC(=O)N(C)C(C)(C)Cc1ccccc1)C(C)(C)Cc1ccccc1 ; what Potency value has been reported?
result: inactive

query: Suppose we examine the molecule CCCCCCCCCCCCCCCC[N+](C)(C)CCN(Cc1ccc(OC)cc1)c1ncccn1 ; what Potency value has been reported?
result: inactive

query: Suppose we examine the molecule CCN(CC)C(=O)/C(C#N)=C/c1cc(O)c(O)c([N+](=O)[O-])c1 ; what Potency value has been reported?
result: inactive
